The reported numbers originate from ChEMBL document CHEMBL5291721.

AC50 reference
Molecular target: 5-hydroxytryptamine receptor 2B (Homo sapiens, UniProt P41595); also: assay procedure not described here
Sequence (P41595 whole entry): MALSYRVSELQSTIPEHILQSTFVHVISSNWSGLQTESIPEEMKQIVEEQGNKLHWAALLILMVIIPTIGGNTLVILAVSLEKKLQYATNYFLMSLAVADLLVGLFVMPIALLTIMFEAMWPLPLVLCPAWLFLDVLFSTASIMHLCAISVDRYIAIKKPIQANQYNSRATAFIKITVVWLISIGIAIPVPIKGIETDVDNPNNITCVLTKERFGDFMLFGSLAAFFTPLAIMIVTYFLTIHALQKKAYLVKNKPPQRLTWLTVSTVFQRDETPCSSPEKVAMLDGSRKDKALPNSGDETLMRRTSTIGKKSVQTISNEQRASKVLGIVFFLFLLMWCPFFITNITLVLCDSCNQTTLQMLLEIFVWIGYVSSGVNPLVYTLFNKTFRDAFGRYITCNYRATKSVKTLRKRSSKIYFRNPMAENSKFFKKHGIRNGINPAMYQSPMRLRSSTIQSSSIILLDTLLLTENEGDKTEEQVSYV

compound: [H]/N=C(/N)N[C@H]1[C@H](O)[C@@H](O)[C@H](O[C@@H]2O[C@@H](C)[C@](O)(C=O)[C@H]2O[C@@H]2O[C@@H](CO)[C@H](O)[C@@H](O)[C@@H]2NC)[C@@H](N/C(N)=N\[H])[C@@H]1O [STREPTOMYCIN]
AC50: > 10 µM

compound: O=C(Nc1nc(-c2cc(Cl)cs2)c(N2CCN(C3CCCCC3)CC2)s1)c1cnc(N2CCC(C(=O)O)CC2)c(Cl)c1 [AVATROMBOPAG]
AC50: > 10 µM

compound: CC(=O)OCC[N+](C)(C)C [ACETYLCHOLINE]
AC50: > 10 µM

compound: Cc1cnc(NC(=O)C2=C(O)c3ccccc3S(=O)(=O)N2C)s1 [MELOXICAM]
AC50: > 10 µM

compound: COC1=C(OC)C(=O)C(CCCCCCCCCCO)=C(C)C1=O [IDEBENONE]
AC50: 8.99 µM

###

Biological target: Beta-1 adrenergic receptor (Homo sapiens, UniProt P08588); also: assay procedure not described here
Sequence (P08588 whole entry): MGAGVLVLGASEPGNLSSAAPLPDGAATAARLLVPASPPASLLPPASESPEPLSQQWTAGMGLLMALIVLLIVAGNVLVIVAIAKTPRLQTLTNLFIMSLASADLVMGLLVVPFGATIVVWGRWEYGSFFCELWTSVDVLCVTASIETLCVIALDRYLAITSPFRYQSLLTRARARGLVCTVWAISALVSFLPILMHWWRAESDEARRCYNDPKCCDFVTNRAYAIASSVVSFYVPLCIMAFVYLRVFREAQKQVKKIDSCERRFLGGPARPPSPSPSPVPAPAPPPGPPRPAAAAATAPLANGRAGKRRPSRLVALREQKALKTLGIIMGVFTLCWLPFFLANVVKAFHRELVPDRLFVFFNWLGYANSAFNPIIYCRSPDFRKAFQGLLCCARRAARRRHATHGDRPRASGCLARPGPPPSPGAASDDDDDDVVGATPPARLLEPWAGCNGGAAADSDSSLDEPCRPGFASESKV
Format: functional
The compounds listed here are annotated with their AC50.
property_name: AC50

compound: CC[C@H]1OC(=O)[C@H](C)[C@@H](O[C@H]2C[C@@](C)(OC)[C@@H](O)[C@H](C)O2)[C@H](C)[C@@H](O[C@@H]2O[C@H](C)C[C@H](N(C)C)[C@H]2O)[C@](C)(OC)C[C@@H](C)C(=O)[C@H](C)[C@@H](O)[C@]1(C)O
property_name: AC50
value_observed: > 30 µM

compound: C[C@H]1Oc2cc(cnc2N)-c2c(nn(C)c2C#N)CN(C)C(=O)c2ccc(F)cc21
property_name: AC50
value_observed: > 30 µM

compound: CCc1oc2ccccc2c1C(=O)c1cc(Br)c(O)c(Br)c1
property_name: AC50
value_observed: 29 µM

compound: CCn1cc(C(=O)O)c(=O)c2cc(F)c(N3CCNCC3)nc21
property_name: AC50
value_observed: > 10 µM

compound: CC(C)N(CCCCOCC(=O)NS(C)(=O)=O)c1cnc(-c2ccccc2)c(-c2ccccc2)n1
property_name: AC50
value_observed: > 30 µM

compound: Cc1cccc(N(C)C(=S)Oc2ccc3ccccc3c2)c1 [TOLNAFTATE]
property_name: AC50
value_observed: > 10 µM

compound: Cc1ccc(NC(=O)C2(c3ccc4c(c3)OC(F)(F)O4)CC2)nc1-c1cccc(C(=O)O)c1
property_name: AC50
value_observed: > 30 µM

compound: CS(=O)(=O)OCCCCOS(C)(=O)=O
property_name: AC50
value_observed: > 30 µM

compound: CC1(C)O[C@@H]2C[C@H]3[C@@H]4C[C@H](F)C5=CC(=O)C=C[C@]5(C)[C@H]4[C@@H](O)C[C@]3(C)[C@]2(C(=O)CO)O1 [FLUNISOLIDE]
property_name: AC50
value_observed: > 30 µM

compound: CN(C)C(=O)Oc1cc(OC(=O)N(C)C)cc(C(O)CNC(C)(C)C)c1 (stereo not drawn)
property_name: AC50
value_observed: > 30 µM

compound: CC(CCc1ccccc1)NC(C)C(O)c1ccc(O)cc1 (stereo not drawn)
property_name: AC50
value_observed: 3.95 µM

compound: COC(=O)N[C@@H](C)CNc1nccc(-c2cn(C(C)C)nc2-c2cc(Cl)cc(NS(C)(=O)=O)c2F)n1
property_name: AC50
value_observed: > 30 µM

compound: CC(C)c1cc2c(cc1S(=O)(=O)O)[C@@]1(C)CCC[C@@](C)(C(=O)O)[C@@H]1CC2
property_name: AC50
value_observed: > 30 µM

compound: CO[C@@]1(NC(=O)Cc2cccs2)C(=O)N2C(C(=O)O)=C(COC(N)=O)CS[C@@H]21
property_name: AC50
value_observed: > 30 µM

compound: CCOC(=O)NNc1ccc(N(CC)CC(C)O)nn1 (stereo not drawn)
property_name: AC50
value_observed: > 30 µM

compound: Cc1cc(CC(=O)O)n(C)c1C(=O)c1ccc(Cl)cc1 [ZOMEPIRAC]
property_name: AC50
value_observed: > 30 µM

compound: COc1cccc2c1C(=O)c1c(O)c3c(c(O)c1C2=O)C[C@@](O)(C(C)=O)C[C@@H]3O[C@H]1C[C@H](N)[C@H](O)[C@H](C)O1
property_name: AC50
value_observed: 28 µM

compound: CC(=O)Oc1ccccc1C(=O)Nc1ncc([N+](=O)[O-])s1 [NITAZOXANIDE]
property_name: AC50
value_observed: 8.8 µM

compound: COc1ccc2c(c1)[C@]13CCCC[C@@H]1[C@H](C2)N(C)CC3
property_name: AC50
value_observed: > 10 µM

compound: CC#CCn1c(N2CCC[C@@H](N)C2)nc2c1c(=O)n(Cc1nc(C)c3ccccc3n1)c(=O)n2C
property_name: AC50
value_observed: > 10 µM

compound: O=C(O)c1cc(O)c2c3nc4ccccc4oc-3cc(=O)c2n1
property_name: AC50
value_observed: > 30 µM

compound: O=C(Nc1c(Cl)cncc1Cl)c1ccc(OC(F)F)c(OCC2CC2)c1
property_name: AC50
value_observed: > 30 µM

compound: COc1cc2c(Nc3ccc(Br)cc3F)ncnc2cc1OCC1CCN(C)CC1
property_name: AC50
value_observed: > 30 µM

compound: COc1c(O[C@@H]2O[C@H](CO)[C@@H](O)[C@H](O)[C@H]2O)cc2c(c1OC)-c1ccc(SC)c(=O)cc1[C@@H](NC(C)=O)CC2 [THIOCOLCHICOSIDE]
property_name: AC50
value_observed: > 30 µM

compound: Clc1ccc2c(c1)C(c1ccccc1)=NCc1nncn1-2
property_name: AC50
value_observed: > 10 µM

compound: CC(=N)N1CC[C@H](SC2=C(C(=O)O)N3C(=O)[C@H]([C@@H](C)O)[C@H]3C2)C1
property_name: AC50
value_observed: 230 µM

compound: Cc1cnc(NC(=O)C2=C(O)c3ccccc3S(=O)(=O)N2C)s1
property_name: AC50
value_observed: > 10 µM

compound: NS(=O)(=O)c1cc(C(=O)O)cc(N2CCCC2)c1Oc1ccccc1 [PIRETANIDE]
property_name: AC50
value_observed: > 30 µM

compound: Cc1ccc(=O)n(-c2ccccc2)c1
property_name: AC50
value_observed: > 30 µM

compound: O=C(O)c1ccccc1OP(=O)(O)O
property_name: AC50
value_observed: > 30 µM

compound: O=C1CN2Cc3c(ccc(Cl)c3Cl)N=C2N1 [ANAGRELIDE]
property_name: AC50
value_observed: > 10 µM

compound: COCCCOc1ccnc(C[S+]([O-])c2nc3ccccc3[nH]2)c1C (stereo not drawn)
property_name: AC50
value_observed: > 10 µM

compound: CCN(CC)C(=O)C1CN2CCc3cc(OC)c(OC)cc3C2CC1OC(C)=O (stereo not drawn) [BENZQUINAMIDE]
property_name: AC50
value_observed: > 30 µM
